meta.source: the CheMixHub drug solubility set

assay_procedure: xn = mol fraction of the nth substance listed, in the solute-free solvent
assay_conditions: 313.15 K; x2 = 0.3103
Please note: condition met applies when solubility (g/100 g solution) is 5 or greater, and condition not met applies otherwise.

Some entries whose results are on file:
INSERT INTO results (molecule, answer_label) VALUES
  ('CS(=O)(=O)c1ccc(C(O)C(CF)NC(=O)C(Cl)Cl)cc1 (stereo not given) + CC(C)O + O', 'condition not met'),
  ('COC(=O)C1=C(C)NC(C)=C(C(=O)OCC(C)C)C1c1ccccc1[N+](=O)[O-] (stereo not given) + CC(C)O + O', 'condition met'),
  ('CC(=O)Nc1ccc(OC(=O)c2ccccc2OC(C)=O)cc1 + CC(C)O + O', 'condition not met');

Could you now look at the following molecule, please?
Input: Quick check, solubility (g/100 g solution) >= 5? COC(=O)C1=C(C)NC(C)=C(C(=O)OCC(C)C)C1c1ccccc1[N+](=O)[O-] (stereo not given) + CCCO + O
Output: condition met
